# assay.remarks: Inhibitory concentration against class II fructose-bisphosphate aldolase
pIC50: −log10 of the molar value.
Catalogue of pIC50 values

[
  {
    "chem.smiles": "N/C(CCP(=O)(O)O)=N\\O",
    "pIC50": 2.47
  },
  {
    "chem.smiles": "NNC(=O)CCP(=O)(O)O",
    "pIC50": 2.44
  }
]

* * *

Form field: pKi (one value per entry).
# assay.remarks: Binding affinity against class II fructose-bisphosphate aldolase
pKi: −log10 of the molar value.
measured.attribute: pKi

[
  {
    "molecule": "N/C(COP(=O)(O)O)=N/O",
    "measured.attribute": "pKi",
    "recorded.measurement": 5.64
  },
  {
    "molecule": "NNC(=O)COP(=O)(O)O",
    "measured.attribute": "pKi",
    "recorded.measurement": 6.47
  },
  {
    "molecule": "O=C(CCP(=O)(O)O)NO",
    "measured.attribute": "pKi",
    "recorded.measurement": 3.84
  },
  {
    "molecule": "O=C(COP(=O)(O)O)NO [PHOSPHOGLYCOLOHYDROXAMATE]",
    "measured.attribute": "pKi",
    "recorded.measurement": 8.00
  }
]

* * *

# system: Triosephosphate isomerase (Oryctolagus cuniculus, UniProt P00939)
# Sequence (P00939 whole entry): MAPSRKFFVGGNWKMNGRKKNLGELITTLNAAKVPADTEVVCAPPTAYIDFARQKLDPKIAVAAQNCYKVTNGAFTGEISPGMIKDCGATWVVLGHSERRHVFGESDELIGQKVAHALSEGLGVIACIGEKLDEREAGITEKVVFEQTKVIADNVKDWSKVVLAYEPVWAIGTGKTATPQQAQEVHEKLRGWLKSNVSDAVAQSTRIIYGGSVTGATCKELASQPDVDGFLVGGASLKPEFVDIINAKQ
pKi: −log10 of the molar value.

[
  {
    "compound": "O=C(CCP(=O)(O)O)NO",
    "system": "Triosephosphate isomerase (Oryctolagus cuniculus, UniProt P00939)",
    "pKi": 3.80
  },
  {
    "compound": "NNC(=O)COP(=O)(O)O",
    "system": "Triosephosphate isomerase (Oryctolagus cuniculus, UniProt P00939)",
    "pKi": 3.95
  },
  {
    "compound": "O=C(COP(=O)(O)O)NO [PHOSPHOGLYCOLOHYDROXAMATE]",
    "system": "Triosephosphate isomerase (Oryctolagus cuniculus, UniProt P00939)",
    "pKi": 5.52
  }
]

* * *

Triosephosphate isomerase (Oryctolagus cuniculus, UniProt P00939) IC50 data

[
  {
    "chem.smiles": "N/C(CCP(=O)(O)O)=N\\O",
    "IC50": "9.6 mM"
  },
  {
    "chem.smiles": "NNC(=O)CCP(=O)(O)O",
    "IC50": "27 mM"
  }
]
